These measurements were taken from PubChem BioAssay (NCI).

In this section, each of the compounds is paired with its reported growth.
Tested on: DU-145 prostate
Assay: NCI-60 one-dose screen, 48 h (100 = growth as untreated, 0 = no growth, -100 = all killed)
Settings: 10 µM unless noted
This is part of a sample that, as a whole, favours compounds with a hit. Of some 83,000 tested, about 20% had one in any assay. Active and inactive are the calls of the source. How the source made its calls: active means growth percent below 10; inactive means the rest.

Cc1ccc(/C=C2\CNC/C(=C\c3ccc(C)cc3)C2=O)cc1 ... -87.5% (active)
O=C1C(=O)c2cc([N+](=O)[O-])ccc2-c2ccccc21 ... -99.2% (active)
O=C(c1ccccc1)c1cc2ccccc2oc1=O ... 114% (inactive)

Specify reported growth for the compound shown: "O=[N+]([O-])c1ccc([I+]c2ccccc2)cc1"
-10.5% (active)

Specify reported growth for the compound shown: COc1cccc2c1C(=O)c1c(O)c3c(c(O)c1C2=O)C[C@@](O)(C(=O)CO)C[C@@H]3OC1CC(OC(C)=O)C(OC(C)=O)C(C)O1 (stereo partly specified)
-50.9% (active)

Specify reported growth for the compound shown: "CN1CSC(=S)N(Cc2ccccc2)C1"
110% (inactive)

###

Test system: TK-10 renal
Experiment: NCI-60 one-dose screen, 48 h
Conditions: 10 µM unless noted
This is part of a sample that, as a whole, favours compounds with a hit. Of some 83,000 tested, about 20% had one in any assay. Calls of active or inactive are those of the source. How the source made its calls: active means growth percent below 10; inactive means the rest.
Your response should consist of one outcome taken from t (active), f (inactive)

A selection of reference data follows.
Cc1cc2cccnc2c2ncccc12 ... f
O=C(NNc1ccccc1)OCc1ccccc1 ... f
N#CC(I)CS(=O)(=O)c1ccccc1 (stereo not given) ... f
CC1(C)N=c2cc3c(cc2N1c1ccc(Cl)cc1)=Nc1ccccc1N3c1ccc(Cl)cc1 ... f
Cc1nnc(N/N=C/c2ccc([N+](=O)[O-])o2)[nH]c1=O ... t
O=C1/C(=C/c2ccccn2)CCc2ccccc21 ... f

Given "O=C1C=Cc2ccccc2/C1=C/c1nc(-c2ccccc2)oc1O" , state the outcome it received in this test.
f

Given CC(O)C(O)C(O)C(O)C(O)C(=O)NNc1ccccc1 (stereo not given) , state the outcome it received in this test.
f

Given "CN(C)c1ccc(/C=C/c2ccnc3ccccc23)cc1" , state the outcome it received in this test.
f

Given CCCCCCCCCCCC[n+]1ccccc1 (tested in a mixture with another compound) , state the outcome it received in this test.
t

Given "NC(=Nc1nc(-c2ccccn2)cc2ccccc12)c1ccccn1" , state the outcome it received in this test.
f

Given CCN(CC)CC(O)CNc1ccc(NCC2CO2)c2c1C(=O)c1ccccc1C2=O (stereo not given) , state the outcome it received in this test.
t

Given CCCCCCCCCCCC(=O)OC(C)C(=O)NCCCC (stereo not given) , state the outcome it received in this test.
f

Given "CC(C)(C)c1ccc(O)c(-c2ccccc2)c1" , state the outcome it received in this test.
f

Given O=C(c1ccccc1)C(Br)C(Br)c1ccccc1 (stereo not given) , state the outcome it received in this test.
f

###

System: HOP-62 NSCLC
Assay: NCI-60 one-dose screen, 48 h
Details: 10 µM unless noted
About 83,000 compounds went through this panel and 20% of them were active in at least one assay; those are over-represented in the sample as a whole. Activity calls are given as the source filed them. How the source made its calls: active means growth percent below 10; inactive means the rest.
Your response should consist of one outcome taken from active, inactive

CC(CSc1n[nH]c(=S)s1)c1ccccc1 (configuration not stated) ... inactive
Cc1cc(C(N)=O)cc(C)c1C(=O)OCCCl ... inactive
CC(C)(C)c1ccc(O)c(Br)c1 ... inactive
Oc1ccc2c(c1)CCc1ccccc1-2 ... inactive
Cc1nc([N+](=O)[O-])c(Sc2nncc(-c3ccccc3)n2)n1C ... inactive
CCC(=O)c1cc([N+](=O)[O-])c(Br)s1 ... inactive
CCCCCCCCCCCCSC(=N)N ... inactive
CCN(CC)CCNC(Cc1ccccc1)c1ccc(OCc2ccccc2)cc1 (configuration not stated) ... inactive

Given CN1CCC(CN2c3ccccc3Sc3ccccc32)C1 (configuration not stated) , state the outcome it received in this test.
inactive

Given "Clc1ccc(-n2ncc3c(NCCCN4CCOCC4)ncnc32)cc1" , state the outcome it received in this test.
inactive

Given "CCCCCCCCCCCC1=NCCCN1CCCC" , state the outcome it received in this test.
inactive

Given "c1csc(-c2[nH]nc3c2CCc2ccccc2-3)c1" , state the outcome it received in this test.
inactive

Given O=[N+]([O-])CC(O)c1ccccc1 (configuration not stated) , state the outcome it received in this test.
inactive

Given "Nc1nc(N)c2cc(Sc3cccc(C(F)(F)F)c3)ccc2n1" , state the outcome it received in this test.
inactive

Given "OC(Cc1cc(CC(O)(C(F)(F)F)C(F)(F)F)nc(CC(O)(C(F)(F)F)C(F)(F)F)c1)(C(F)(F)F)C(F)(F)F" , state the outcome it received in this test.
active

###

Tested on: DU-145 prostate
Experiment: NCI-60 one-dose screen, 48 h
Details: 10 µM unless noted
The panel holds about 83,000 compounds, 20% with a hit somewhere; the sample as a whole holds those more often. Activity calls are given as the source filed them. How the source made its calls: active means growth percent below 10; inactive means the rest.
Your response should consist of one outcome taken from active, inactive

A selection of reference data follows.
Clc1ccc(-n2ncc3c(NCCCN4CCOCC4)ncnc32)cc1 ... inactive
COC(=O)c1ccc(=O)c2nc3/c(=C/O)c(O)cc(=O)c3[nH]c12 ... inactive
CCCOS(=O)(=O)c1ccccc1 ... inactive
CCCN(CCC)C(=O)c1ccc(C)cc1 ... inactive
CC1CC(C)(C)OB(OC(C)CC(C)(C)OB2OC(C)CC(C)(C)O2)O1 (centres undefined) ... inactive
CCCC[n+]1c(/C=C\c2c(OC)cc(OC)cc2OC)ccc2ccccc21 ... inactive

Given CC(O)C(O)C(O)C(O)C(O)C(=O)NNc1ccccc1 (centres undefined) , state the outcome it received in this test.
inactive

Given "O=C1c2ccccc2C(=O)c2c(O)c(Cl)cc(O)c21" , state the outcome it received in this test.
inactive

Given OC(c1cc(-c2ccc(Cl)cc2)nc2c(Cl)cccc12)C1CCCCN1 (centres undefined) , state the outcome it received in this test.
active

Given CN(C)CCSC1=Nc2ccc(Cl)cc2C(c2ccccc2Cl)N(C)C1 (centres undefined) , state the outcome it received in this test.
inactive

Given "NNc1cccc([N+](=O)[O-])c1" , state the outcome it received in this test.
inactive

Given "CCCCCCCCCCCCNCCCc1ccccc1" , state the outcome it received in this test.
inactive

Given COC1=CC(=O)c2c(O)c3c(c(O)c2C1=O)CC(C)(O)OC3 (centres undefined) , state the outcome it received in this test.
inactive

Given CC(CSc1n[nH]c(=S)s1)c1ccccc1 (centres undefined) , state the outcome it received in this test.
inactive

###

Tested on: SF-539 CNS
Assay: NCI-60 one-dose screen, 48 h (100 = growth as untreated, 0 = no growth, -100 = all killed)
Details: 10 µM unless noted
This is part of a sample that, as a whole, favours compounds with a hit. Of some 83,000 tested, about 20% had one in any assay.
Measure: growth (%)
Answer with a number only, understood to be in %.

CN(C)c1ccc(/C=C/c2ccnc3ccccc23)cc1 ... 47.2
CN(C)c1ccc(C(=C2C=CC(=[N+](C)C)C=C2)c2ccc(N(C)C)cc2)cc1 ... -70.6
Cc1nn(CCO)c(C)c1N=[N+]([O-])c1c(C)nn(CCO)c1C ... 89.1
NC(=S)N/N=C\c1nccc2c(C(F)(F)F)cccc12 ... 0.339
CCOc1ccc(C(C[N+](=O)[O-])Sc2ccccc2N)cc1 (stereo unspecified) ... -44.5

Specify reported growth for the compound shown: "S=C(S)OCN1CCOCC1"
101

Specify reported growth for the compound shown: "C[C@@]1(CO)[C@H](O)CC[C@@]2(C)[C@H]1CC[C@H]1C[C@@H]3C[C@@]12CC[C@@]3(O)COC(=O)CN"
-13.9

Specify reported growth for the compound shown: "Cc1cc(N/N=C/c2ccccn2)nc2ccccc12"
-37.8

Specify reported growth for the compound shown: "O=[n+]1c2ccccc2n([O-])c2cc(Cl)ccc21"
53.1

###

Test system: SNB-19 CNS
Assay: NCI-60 one-dose screen, 48 h (100 = growth as untreated, 0 = no growth, -100 = all killed)
Conditions: 10 µM unless noted
This is part of a sample that, as a whole, favours compounds with a hit. Of some 83,000 tested, about 20% had one in any assay.
Measure: growth (%)
Answer with a number only, understood to be in %.

Here are 2 compounds together with their reported answers.
O=C1c2ccccc2Cc2cccc(Cl)c21 ... 100
OC(Cc1cc(CC(O)(C(F)(F)F)C(F)(F)F)nc(CC(O)(C(F)(F)F)C(F)(F)F)c1)(C(F)(F)F)C(F)(F)F ... 16

Specify reported growth for the compound shown: "CN(C)c1ccc2cc3c(cc2c1)Oc1ccccc1N3.[Cl][Zn][Cl]"
114

Specify reported growth for the compound shown: "Nc1cccc2cccc([N+](=O)[O-])c12"
102

Specify reported growth for the compound shown: "Oc1ccc(Cl)cc1Cc1cc(Cl)ccc1O"
41.5

Specify reported growth for the compound shown: "CCCCCCCCCCCC[n+]1ccc(CCCCCCCCC)cc1"
-74.5

Specify reported growth for the compound shown: "Oc1c(Cl)cc(Cl)cc1C(c1cc(Cl)cc(Cl)c1O)C(Cl)(Cl)Cl"
19.2

Specify reported growth for the compound shown: "Cc1ccc(NC2=CC(=O)C(=O)c3ccccc32)cc1"
28.4

Specify reported growth for the compound shown: CCC[CH2][Sn]1([CH2]CCC)[O]C2C(CO)OC(n3ccc(N)nc3=O)C2[O]1 (centres undefined)
28.4
